Data credit: patent US20170145113A1

- system.name: T1, His-tagged human HtrA1 protease domain (human, UniProt Q92743 161-367)
- T1 construct: His-tagged protease domain; also called huHtrA1-PD-His; huHtrA1-PD
- assay.overview: BIACORE SPR, single-cycle kinetics; Fab analyte over captured human HtrA1
Below, each entry is listed alongside its reported pKd.
When answering, recall that pKd equals minus log10 of the concentration in mol/L, and write that number alone.

Below: 2 binders and their reported pKd.
- binder: "h15H6.v2 Fab (Fab, V domains shown, Tested as Fab; also called parent; parental Fab) VH: EVQLVQSGAEVKKPGASVKVSCKASGYTFTDSEMHWVRQAPGQGLEWIGGVDPETDGAAYNQKFKGRATITRDTSTSTAYLELSSLRSEDTAVYYCTRGYDYDYALDYWGQGTLVTVSS VL: DIQMTQSPSSLSASVGDRVTITCRASSSVNFIHWYQQKPGKAPKPLISATSNLASGVPSRFSGSGSGTDFTLTISSLQPEDFATYYCQQWSSNPWTFGQGTKVEIK"
  measure.name: "pKd"
  value.observed: 9.48
- binder: "h15H6.v2 HC-D55E HC-G56 Fab (Fab, V domains shown, Produced as Fab; also called EG) VH: EVQLVQSGAEVKKPGASVKVSCKASGYTFTDSEMHWVRQAPGQGLEWIGGVDPETEGAAYNQKFKGRATITRDTSTSTAYLELSSLRSEDTAVYYCTRGYDYDYALDYWGQGTLVTVSS VL: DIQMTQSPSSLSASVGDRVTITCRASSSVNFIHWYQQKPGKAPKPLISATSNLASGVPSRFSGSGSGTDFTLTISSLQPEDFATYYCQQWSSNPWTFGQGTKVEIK"
  measure.name: "pKd"
  value.observed: 9.26

Using the record for DA (Fab, V domains shown, single member of the group m42; also called h15H6.v2 HC-D55 HC-G56A Fab) VH: EVQLVQSGAEVKKPGASVKVSCKASGYTFTDSEMHWVRQAPGQGLEWIGGVDPETDAAAYNQKFKGRATITRDTSTSTAYLELSSLRSEDTAVYYCTRGYDYDYALDYWGQGTLVTVSS VL: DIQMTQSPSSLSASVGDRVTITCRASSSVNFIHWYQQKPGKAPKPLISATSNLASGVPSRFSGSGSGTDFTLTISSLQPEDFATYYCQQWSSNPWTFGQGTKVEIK , report its pKd.
9.08
